TGI for assorted compounds
System: UACC-257 melanoma
Test protocol: NCI tumour cell line growth inhibition, 48 h

Recorded TGI, per entry:
[
  {
    "Compound": "CCCCCCCCCCCCCC(=O)OCC(C[As](=O)(O)O)OC(=O)CCCCCCCCCCCCC (stereo not drawn)",
    "TGI": "> 100 µM"
  },
  {
    "Compound": "COc1cccc(C(=O)Oc2ccc(OS(=O)(=O)c3ccc(C)cc3)cc2)c1C#N",
    "TGI": "96.6 µM"
  }
]

Exam item: Form field: reported TGI of C=CCn1c(N)c(C#N)c(C#N)c1-c1ccccc1
Marked response: > 100 µM

Exam item: Would you kindly share the measured TGI for NC(=O)/C=C/C(=O)c1c(Cl)cccc1Cl ?
Marked response: 2.68 µM

Exam item: I am curious: what TGI value has been reported for CC(C)N(C(=O)C12C3C4C1C1C4(C#N)C3C12C#N)C(C)C (stereo not drawn) ?
Marked response: > 100 µM

Exam item: Form field: reported TGI of O=C1c2ccccc2C(=O)c2c(NCC(O)CO)ccc(NCC(O)CO)c21 (stereo not drawn)
Marked response: > 100 µM

Exam item: # query: TGI of entry CCOC1(OCC)C2C=CC1C(COS(=O)(=O)c1ccc(C)cc1)C2COS(=O)(=O)c1ccc(C)cc1 (stereo not drawn)
Marked response: 62.2 µM

Exam item: So what's the measured TGI for this one? COc1cc(OC)cc(Oc2nc3ccccc3nc2C(F)(F)F)c1
Marked response: > 100 µM

* * *

System: MALME-3M melanoma
Test protocol: NCI tumour cell line growth inhibition, 48 h
Binary call on TGI: Condition met from 40 µM upward, Condition not met beneath that.

Exam item: Threshold query (TGI >= 40 µM) on O=C1c2cccc3c2C(=O)c2c(cccc21)OCCOCCOCCOCCO3
Marked response: Condition met

Exam item: Hi team, for CN1CCc2c([nH]c3ccccc23)C1 , is the recorded TGI at or above 40 µM?
Marked response: Condition met

Exam item: Identify whether the reported TGI of the following compound is 40 µM or greater: Cc1ccc(C2SCC(=O)N2c2ccc(-n3c(-c4ccccc4)nc4ccccc4c3=O)cc2)cc1 (stereo not given)
Marked response: Condition met

Exam item: Check if TGI >= 40 µM (inclusive). Item: COc1cc(Nc2nc3ccccc3nc2C(=O)O)cc(OC)c1OC
Marked response: Condition met

* * *

System: HCT-116 colon
Test protocol: NCI tumour cell line growth inhibition, 48 h
Reported endpoint: TGI

Examples with their reported TGI follow.
[
  {
    "Compound": "Cc1ccc(S(=O)(=O)N(C=O)N=C2CCN(Cc3ccccc3)CC2)cc1",
    "TGI": "> 100 µM"
  },
  {
    "Compound": "COc1cc(C2C3C=CC=C4CC=CC(=C43)C3CCC(=O)N32)cc(OC)c1OC (configuration not stated)",
    "TGI": "> 100 µM"
  },
  {
    "Compound": "O=C(Nc1ccn(CCO)c(=O)n1)c1ccccc1",
    "TGI": "> 100 µM"
  },
  {
    "Compound": "COc1cc(C(=O)N2CCN(C=O)C2=S)cc(OC)c1OC",
    "TGI": "> 100 µM"
  },
  {
    "Compound": "Cc1ccc(/C=N/Nc2cc(C)c3cccc(C)c3n2)s1",
    "TGI": "12.4 µM"
  },
  {
    "Compound": "CCN1CCN(C(=O)[C@@]2(C)CC[C@]3(C)CC[C@]4(C)C(=CC(=O)[C@@H]5[C@@]6(C)CC[C@H](OC7C[C@@H](O)[C@@H](O)C(C)O7)C(C)(C)[C@@H]6CC[C@]54C)[C@@H]3C2)CC1 (some centres not stated)",
    "TGI": "5.74 µM"
  }
]

Then there is this compound:
Exam item: Data request, read-out TGI, for C=CCc1c(O)c2c(c3oc(=O)cc(C)c13)CC(C)O2 (configuration not stated)
Marked response: > 100 µM

Reference source for all entries: PubChem BioAssay (NCI)
